Origin of measurements: patent US4138554A

- System: Pseudomonas aeruginosa
- experimental protocol: MIC by agar dilution against 61 strains of Pseudomonas aeruginosa, secondary evaluation
- Format: cell-based
- run parameters: Pseudomonas aeruginosa, BBRI Pa-No. 20, Table 7; read-out: MIC
measure: MIC (mg/L)
Give just the numeric value; mg/L need not be written.

Solved cases below.
NC(=O)OCC1=C(C(=O)O)N2C(=O)C(NC(=O)[C@H](NC(=O)c3cnc4cccnc4c3O)c3ccccc3)[C@H]2SC1 (stereo partly shown)	3.1
NC(=O)OCC1=C(C(=O)O)N2C(=O)C(NC(=O)[C@H](NC(=O)c3cnc4cccnc4c3O)c3ccc(O)cc3)C2SC1 (single isomer, unassigned)	1.6
CCN1CCN(C(=O)NC(C(=O)N[C@@H]2C(=O)N3[C@@H]2SC(C)(C)[C@@H]3C(=O)O)c2ccccc2)C(=O)C1=O (stereo partly shown)	6.3

Proceed to the following item.
Query: MIC; subject: CC1(C)S[C@@H]2[C@H](NC(=O)C(c3ccccc3)S(=O)(=O)O)C(=O)N2[C@H]1C(=O)O (stereo partly shown)
25

---

- experimental protocol: Mouse blood levels after subcutaneous injection
- Format: in vivo
- run parameters: in vivo, sc, 20 mg/kg
measure: concentration at 1 h
Kindly report the value followed by its unit.

Query: concentration at 1 h; subject: NC(=O)OCC1=C(C(=O)O)N2C(=O)C(NC(=O)[C@H](NC(=O)c3cnc4cccnc4c3O)c3ccccc3)[C@H]2SC1 (stereo partly shown)
3700 ng/mL

---

- experimental protocol: Mouse blood levels after subcutaneous injection
- Type: in vivo
- run parameters: in vivo, sc, 20 mg/kg
measure: concentration at 0.25 h (µg/mL)
Give just the numeric value; µg/mL need not be written.

Query: concentration at 0.25 h; subject: NC(=O)OCC1=C(C(=O)O)N2C(=O)C(NC(=O)[C@H](NC(=O)c3cnc4cccnc4c3O)c3ccccc3)[C@H]2SC1 (stereo partly shown)
13

---

- experimental protocol: Mouse blood levels after subcutaneous injection
- Format: in vivo
- run parameters: blood, sc, 40 mg/kg, subcutaneous, 40 Mgm./Kg., 2.0 hours, read-out: Blood Levels
measure: concentration at 2 h

Query: concentration at 2 h; subject: CC1(C)S[C@@H]2[C@H](NC(=O)C(c3ccccc3)S(=O)(=O)O)C(=O)N2[C@H]1C(=O)O (stereo partly shown)
< 1000 ng/mL

---

- experimental protocol: Mouse blood levels after subcutaneous injection
- Type: in vivo
- run parameters: blood, sc, 40 mg/kg, subcutaneous, 40 Mgm./Kg., 1.0 hours, read-out: Blood Levels
measure: concentration at 1 h
Kindly report the value followed by its unit.

Query: concentration at 1 h; subject: CC1(C)S[C@@H]2[C@H](NC(=O)C(c3ccccc3)S(=O)(=O)O)C(=O)N2[C@H]1C(=O)O (stereo partly shown)
5000 ng/mL

---

- Test system: Pseudomonas aeruginosa
- experimental protocol: MIC by agar dilution against 61 strains of Pseudomonas aeruginosa, secondary evaluation
- Assay type: cell-based
- run parameters: Pseudomonas aeruginosa, BBRI Pa-No. 33, Table 7; read-out: MIC
measure: MIC (µg/mL)
Give just the numeric value; µg/mL need not be written.

NC(=O)OCC1=C(C(=O)O)N2C(=O)C(NC(=O)[C@H](NC(=O)c3cnc4cccnc4c3O)c3ccc(O)cc3)C2SC1 (single isomer, unassigned)	0.8
CCN1CCN(C(=O)NC(C(=O)N[C@@H]2C(=O)N3[C@@H]2SC(C)(C)[C@@H]3C(=O)O)c2ccccc2)C(=O)C1=O (stereo partly shown)	6.3
CC1(C)S[C@@H]2[C@H](NC(=O)C(c3ccccc3)S(=O)(=O)O)C(=O)N2[C@H]1C(=O)O (stereo partly shown)	25

Proceed to the following item.
Query: MIC; subject: NC(=O)OCC1=C(C(=O)O)N2C(=O)C(NC(=O)[C@H](NC(=O)c3cnc4cccnc4c3O)c3ccccc3)[C@H]2SC1 (stereo partly shown)
1.6

---

- experimental protocol: Mouse blood levels after subcutaneous injection
- Format: in vivo
- run parameters: blood, sc, 20 mg/kg, subcutaneous, 20 Mgm./Kg., 0.5 hours, read-out: Blood Levels
measure: concentration at 0.5 h (ng/mL)
Give just the numeric value; ng/mL need not be written.

Query: concentration at 0.5 h; subject: CC1(C)S[C@@H]2[C@H](NC(=O)C(c3ccccc3)S(=O)(=O)O)C(=O)N2[C@H]1C(=O)O (stereo partly shown)
7500

---

- Tested on: Pseudomonas aeruginosa
- experimental protocol: MIC by agar dilution against 61 strains of Pseudomonas aeruginosa, secondary evaluation
- Format: cell-based
- run parameters: Pseudomonas aeruginosa, BBRI Pa-No. 65, Table 7; read-out: MIC
Measured MIC accompanies every entry in the list below.
Give just the numeric value; µg/mL need not be written.

Solved cases below.
CC1(C)S[C@@H]2[C@H](NC(=O)C(c3ccccc3)S(=O)(=O)O)C(=O)N2[C@H]1C(=O)O (stereo partly shown)	25
NC(=O)OCC1=C(C(=O)O)N2C(=O)C(NC(=O)[C@H](NC(=O)c3cnc4cccnc4c3O)c3ccc(O)cc3)C2SC1 (single isomer, unassigned)	1.6

Record lookup: for Pseudomonas aeruginosa, what MIC belongs to NC(=O)OCC1=C(C(=O)O)N2C(=O)C(NC(=O)[C@H](NC(=O)c3cnc4cccnc4c3O)c3ccccc3)[C@H]2SC1 (stereo partly shown) ?
1.6

Record lookup: for Pseudomonas aeruginosa, what MIC belongs to CCN1CCN(C(=O)NC(C(=O)N[C@@H]2C(=O)N3[C@@H]2SC(C)(C)[C@@H]3C(=O)O)c2ccccc2)C(=O)C1=O (stereo partly shown) ?
1.6

---

Measured MIC accompanies every entry in the list below.
- System: Pseudomonas aeruginosa
- experimental protocol: MIC by agar dilution against 61 strains of Pseudomonas aeruginosa, secondary evaluation
- Format: cell-based
- run parameters: Pseudomonas aeruginosa, BBRI Pa-No. 32, Table 7; read-out: MIC
Give just the numeric value; mg/L need not be written.

Solved cases below.
CC1(C)S[C@@H]2[C@H](NC(=O)C(c3ccccc3)S(=O)(=O)O)C(=O)N2[C@H]1C(=O)O (stereo partly shown) [Sulbenicillin, sulbenicillin]	25
NC(=O)OCC1=C(C(=O)O)N2C(=O)C(NC(=O)[C@H](NC(=O)c3cnc4cccnc4c3O)c3ccc(O)cc3)C2SC1 (single isomer, unassigned) [BB-S530]	0.8

Query: MIC; subject: CCN1CCN(C(=O)NC(C(=O)N[C@@H]2C(=O)N3[C@@H]2SC(C)(C)[C@@H]3C(=O)O)c2ccccc2)C(=O)C1=O (stereo partly shown) [T-1220]
3.1

Query: MIC; subject: NC(=O)OCC1=C(C(=O)O)N2C(=O)C(NC(=O)[C@H](NC(=O)c3cnc4cccnc4c3O)c3ccccc3)[C@H]2SC1 (stereo partly shown) [BB-S520]
1.6

---

- Test system: Pseudomonas aeruginosa
- experimental protocol: MIC by agar dilution against 61 strains of Pseudomonas aeruginosa, secondary evaluation
- Assay type: cell-based
- run parameters: Pseudomonas aeruginosa, BBRI Pa-No. 58, Table 7; read-out: MIC
measure: MIC (µg/mL)
Give just the numeric value; µg/mL need not be written.

Solved cases below.
NC(=O)OCC1=C(C(=O)O)N2C(=O)C(NC(=O)[C@H](NC(=O)c3cnc4cccnc4c3O)c3ccccc3)[C@H]2SC1 (stereo partly shown) [BB-S520]	3.1
CCN1CCN(C(=O)NC(C(=O)N[C@@H]2C(=O)N3[C@@H]2SC(C)(C)[C@@H]3C(=O)O)c2ccccc2)C(=O)C1=O (stereo partly shown) [T-1220]	6.3

Query: MIC; subject: CC1(C)S[C@@H]2[C@H](NC(=O)C(c3ccccc3)S(=O)(=O)O)C(=O)N2[C@H]1C(=O)O (stereo partly shown) [Sulbenicillin, sulbenicillin]
50

Query: MIC; subject: NC(=O)OCC1=C(C(=O)O)N2C(=O)C(NC(=O)[C@H](NC(=O)c3cnc4cccnc4c3O)c3ccc(O)cc3)C2SC1 (single isomer, unassigned) [BB-S530]
1.6

---

- experimental protocol: Mouse blood levels after subcutaneous injection
- Type: in vivo
- run parameters: in vivo, sc, 40 mg/kg
measure: concentration at 0.5 h
Kindly report the value followed by its unit.

Query: concentration at 0.5 h; subject: NC(=O)OCC1=C(C(=O)O)N2C(=O)C(NC(=O)[C@H](NC(=O)c3cnc4cccnc4c3O)c3ccccc3)[C@H]2SC1 (stereo partly shown) [BB-S520]
20000 ng/mL

---

- System: Pseudomonas aeruginosa
- experimental protocol: MIC by agar dilution against 61 strains of Pseudomonas aeruginosa, secondary evaluation
- Assay type: cell-based
- run parameters: Pseudomonas aeruginosa, 61 strains of Pseudomonas aeruginosa, Table 7; read-out: Geometric Mean of MIC
Measured MIC accompanies every entry in the list below.
Give just the numeric value; µg/mL need not be written.

NC(=O)OCC1=C(C(=O)O)N2C(=O)C(NC(=O)[C@H](NC(=O)c3cnc4cccnc4c3O)c3ccccc3)[C@H]2SC1 (stereo partly shown)	2.4
CCN1CCN(C(=O)NC(C(=O)N[C@@H]2C(=O)N3[C@@H]2SC(C)(C)[C@@H]3C(=O)O)c2ccccc2)C(=O)C1=O (stereo partly shown)	4.3
NC(=O)OCC1=C(C(=O)O)N2C(=O)C(NC(=O)[C@H](NC(=O)c3cnc4cccnc4c3O)c3ccc(O)cc3)C2SC1 (single isomer, unassigned)	1.4

Query: MIC; subject: CC1(C)S[C@@H]2[C@H](NC(=O)C(c3ccccc3)S(=O)(=O)O)C(=O)N2[C@H]1C(=O)O (stereo partly shown)
24
